# methodDescription: soluble on expression in E. coli; label from the status in PepcDB or PDB records
metric: soluble on expression in E. coli

MIRPVDFQGFVVKGVESVQNVSQTLNQQTLVQQALSQHLLHQIQREQSSVKESNTAERAEVRTSTERRQRGFPQTRTHSSLKKKKTSIKEENKGLFMDVRTLEHHHHHH : not soluble
MAHHHHHHMGTLEAQTQGPGSMMAASHDDDTVDGLATAVRGGDRAALPRAITLVESTRPDHREQAQQLLLRLLPDSGNAHRVGITGVPGVGKSTAIEALGMHLIERGHRVAVLAVDPSSTRTGGSILGDKTRMARLAVHPNAYIRPSPTSGTLGGVTRATRETVVLLEAAGFDVILIETVGVGQSEVAVANMVDTFVLLTLARTGDQLQGIKKGVLELADIVVVNKADGEHHKEARLAARELSAAIRLIYPREALWRPPVLTMSAVEGRGLAELWDTVERHRQVLTGAGEFDARRRDQQVDWTWQLVRDAVLDRVWSNPTVRKVRSELERRVRAGELTPALAAQQILEIANLTDR : soluble
MPASYLHHRSVTQQLPIMSTPHTDFFGLTIPFMQLLGVVPEHSGNGTARTRLPARADLVNSRGDIHGGTLMSVLDFTLGAAIRGDTPEVGVATIDMNTSFMSPGRGDLVIETRCLRRGASIAFCEGEIRDSAGELVAKATATFKIIQRRPGLEHHHHHH : soluble
MGSDKIHHHHHHMERQARIIAFYATNENVGKSTLSIAMANELAHLGKKVLYVEADQVRPSFAVGTGLSHDSKNILELVRKENEYNLSQYICTKQDLLERKMNPRLMQKLHDKMDFLVFPSGYNLAQFPEIQNKELFVTTFIESLVDTEYDSIILSVPTELSEVLSYPILYQSDLVIHVLNGNPRGAIAIKRELQLLEEAKLTLPRMIHVLNMADEDYVEDIEKLSSQKIAVTIPYDRDRTSYEWGMQFGSPQINTKVHHIMEAAGLDIPTQHTSSMKKGLFGLRN : not soluble
KTDPRSMNSRVFIGNLNTLVVKKSDVEAIFSKYGKIVGCSVHKGFAFVQYVNERNARAAVAGEDGRMIAGQVLDINLAAEPKVNR : soluble

Would you kindly look at the next entry?
Input: Please look at this sequence and report its soluble on expression in E. coli: `SFLSNVKYNFMRIIKYEFILNDALNQSIIRANAQYLTAAALHNLDEAVKFDMGAYKSSKDDAKITVILRISKTQLYVTAQDEDQPVLLKEMPEIPKTITGSETNLLFFWETHGTKNYFTSVAHPNLFIATKQDYWVCLAGGPPSITDFQILENQA`
Output: soluble
